Target: CDK6/CyclinD1 (Homo sapiens (Human))
Sequence (Q00534 whole entry): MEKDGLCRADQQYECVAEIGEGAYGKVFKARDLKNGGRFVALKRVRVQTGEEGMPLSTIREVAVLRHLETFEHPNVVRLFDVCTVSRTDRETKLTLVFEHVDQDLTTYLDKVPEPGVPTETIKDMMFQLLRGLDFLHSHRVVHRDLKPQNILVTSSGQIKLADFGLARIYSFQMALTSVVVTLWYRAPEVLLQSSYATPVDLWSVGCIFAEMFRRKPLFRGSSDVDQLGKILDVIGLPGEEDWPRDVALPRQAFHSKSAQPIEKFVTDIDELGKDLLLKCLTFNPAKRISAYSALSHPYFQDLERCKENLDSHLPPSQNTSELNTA
Sequence (P24385 whole entry partner): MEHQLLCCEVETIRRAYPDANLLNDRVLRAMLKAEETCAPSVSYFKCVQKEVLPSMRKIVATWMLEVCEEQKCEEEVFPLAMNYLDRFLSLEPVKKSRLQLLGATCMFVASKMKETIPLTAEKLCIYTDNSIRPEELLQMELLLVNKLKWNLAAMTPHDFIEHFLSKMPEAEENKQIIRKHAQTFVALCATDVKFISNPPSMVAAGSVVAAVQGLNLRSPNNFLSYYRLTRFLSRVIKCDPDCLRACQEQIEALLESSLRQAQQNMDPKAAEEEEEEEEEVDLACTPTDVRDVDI
Test: CDK6/CyclinD1 kinase inhibitory activity (Caliper mobility shift)
Format: biochemical
Details: read-out: CDK6/Cyclin D1 IC50
pIC50: −log10 of the molar value.
Reported pIC50 values are given for each entry in this list.

Example entries and their recorded answers appear below.
C[C@@H]1CCCCN1c1nc(Nc2ccc(S(N)(=O)=O)cc2)ncc1C#N
6.00 to 7.00
N#Cc1cnc(Nc2ccc(S(N)(=O)=O)cc2)nc1O[C@@H]1CCCC[C@@H]1O (single isomer, unassigned)
7.00 to 8.00
N#Cc1cnc(Nc2ccc(S(N)(=O)=O)cc2)nc1N1CCCCC1
6.00 to 7.00
NS(=O)(=O)c1ccc(Nc2ncc(C(F)(F)F)c(O[C@@H]3CCC[C@@H]3O)n2)cc1 (single isomer, unassigned) [Example 99a]
7.00 to 8.00
CC1(O)CCCC1Oc1nc(NC2CCN(S(=O)(=O)C(F)(F)F)CC2)ncc1C#N (single isomer, unassigned) [Example 42b]
6.00 to 7.00

# input For the record `C[C@H]1CCCCN1c1nc(Nc2ccc(S(N)(=O)=O)cc2)ncc1C#N` , what value of pIC50 is listed for CDK6/CyclinD1 (Homo sapiens (Human))?
# output 6.00 to 7.00

# input Again, but for `Cn1cc(S(=O)(=O)N2CCC(Nc3ncc(C#N)c(OCC4(C)CCCC4)n3)CC2)cn1`
# output 7.00 to 8.00

# input Again, but for N#Cc1cnc(Nc2ccc(S(=O)(=O)NC3CCC3)cc2)nc1OC1CCC[C@H]1O (mixture of isomers)
# output 7.00 to 8.00
